Reported pIC50 by item:
Target system: MAGL (Mus musculus)
Construct: mouse brain membrane fraction or cell lysates for mouse assays
Sequence (O35678 whole entry): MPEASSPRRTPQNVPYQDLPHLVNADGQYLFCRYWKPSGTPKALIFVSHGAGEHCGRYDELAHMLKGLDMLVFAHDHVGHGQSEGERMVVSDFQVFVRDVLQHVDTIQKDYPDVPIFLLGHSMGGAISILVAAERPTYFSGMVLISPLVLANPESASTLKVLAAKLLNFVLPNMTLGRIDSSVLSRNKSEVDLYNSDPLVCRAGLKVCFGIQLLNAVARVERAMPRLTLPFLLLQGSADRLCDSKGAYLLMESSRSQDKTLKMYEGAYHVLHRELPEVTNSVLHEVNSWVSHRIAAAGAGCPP
Experiment summary: In vitro competitive activity-based protein profiling, mouse MAGL
pIC50: −log10 of the molar value.

Some compounds with recorded pIC50:
compound=CN(Cc1cccc(Oc2cccnc2)c1)[C@H]1C[C@@H]2CN(C(=O)n3cc(Cl)cn3)C[C@@H]2C1 target_system="MAGL (Mus musculus)" observable=pIC50 reported_measurement="≥ 7.00"
compound=CN(Cc1cccc(Oc2ccccc2)c1)[C@H]1C[C@@H]2CN(C(=O)n3cc(Cl)cn3)C[C@@H]2C1 target_system="MAGL (Mus musculus)" observable=pIC50 reported_measurement="≥ 7.00"

Ask: Entry O=C(N1CCC2(CCN(Cc3ccccc3Cl)C2)C1)n1cc(Cl)cn1 (stereo not drawn) : reported pIC50 = ?
Result: 6.00 to 7.00
